System: UACC-257 melanoma
Assay: NCI-60 one-dose screen, 48 h (100 = growth as untreated, 0 = no growth, -100 = all killed)
Conditions: 10 µM unless noted
Compounds without any hit were thinned out: in the full panel of roughly 83,000, 20% have a hit.
Returns yes (1) if the recorded growth is greater than or equal to 80%, and no (0) otherwise.

Reference set (5 entries):
c1ccc2c(-c3nc(-c4c[nH]c5ncccc45)cs3)c[nH]c2c1    yes (1)
COc1ccc(OCC(CO)N2CCN(c3ccccc3)CC2)cc1 (stereo not given)    yes (1)
O=C1c2cccc3cccc(c23)C(=O)N1CC#Cc1ccc2c3c(cccc13)C(=O)N(CCO)C2=O    yes (1)
CC[C@H](CC[C@@H](C)[C@H]1CC[C@H]2[C@@H]3/C(=C/c4cccnc4)C(=O)C4=CC(=O)CC[C@]4(C)[C@H]3CC[C@]12C)C(C)C    yes (1)
COc1ccc(-c2nc(SCC(=O)Nc3ccc(C(C)=O)cc3)[nH]c(=O)c2C#N)cc1    yes (1)

Query: Is the recorded value of growth equal to or greater than 80% for this molecule? `C=C1CC[C@@H](C(=O)OC)Cc2nc(C)ccc21`
Reply: yes (1)

Query: Would you mind doing CCOC(=O)c1ccc2c(c1)[n+](=O)c(C(=O)C1CCCS1)c(C(F)(F)F)n2[O-] (stereo not given) as well?
Reply: no (0)

Query: Would you mind doing `[B-][N+](CC)(CC)c1ccccc1` as well?
Reply: yes (1)

Query: Would you mind doing `COc1ccc(/C=C/C(=O)c2ccc([N+](=O)[O-])cc2)cc1` as well?
Reply: yes (1)

Query: Would you mind doing `Cc1cc(Cl)c2c(N(C)C)cccc2n1` as well?
Reply: yes (1)
